experiment: Rat PK: plasma prodrug concentration after intramuscular (IM) dosing of xanomeline prodrugs at 5 mg/kg (Example A-4); assay type: in vivo, male Sprague-Dawley (SD) rats; conditions: male, Sprague-Dawley, intramuscular, 5 mg/kg, 4.00 h, IM 5 mg/kg of xanomeline, individual animals, read-out: Prodrug Plasma Concentrations Following Intramuscular Dosing
MEASUREMENT NAME: concentration at 4 h
Answers without a unit are incomplete; give the number and then its unit.

Prompt: Need concentration at 4 h, item CCCCCCOc1nsnc1C1=CCC[N+](C)(C(C)OC(=O)C(C)(C)C)C1 (stereo not shown)
Completion: 38.6 ng/mL

###

assay: Rat PK: plasma prodrug concentration after intramuscular (IM) dosing of xanomeline prodrugs at 5 mg/kg (Example A-4); assay type: in vivo, male Sprague-Dawley (SD) rats; settings: male, Sprague-Dawley, intramuscular, 5 mg/kg, 4.00 h, IM 5 mg/kg of xanomeline, Mean, read-out: Prodrug Plasma Concentrations Following Intramuscular Dosing
Catalogue of concentration at 4 h values
Give the value in ng/mL but do not write ng/mL after it.

CCCCCCOc1nsnc1C1=CCC[N+](C)(C(CC)OC(=O)C(C)(C)C)C1 (centres unmarked)
33.4

Pending molecule:
Prompt: Endpoint output: concentration at 4 h of CCCCCCOc1nsnc1C1=CCC[N+](C)(C(C)OC(=O)C(C)(C)C)C1 (centres unmarked) . Value?
Completion: 35.9

###

test: Rat PK: plasma xanomeline after subcutaneous (SC) dosing of xanomeline, prodrugs or pamoate salts at 5 mg/kg or 3.5 mg/kg (Example A-2); assay type: in vivo, male Sprague-Dawley (SD) rats; conditions: male, Sprague-Dawley, in vivo, parent xanomeline dosed SC, individual animals
MEASUREMENT NAME: Tmax (h)
Field: numeric (h). Do not append units.

Prompt: Return reported Tmax; argument: CCCCCCOc1nsnc1C1=CCCN(C)C1
Completion: 1

###

experiment: Rat PK: plasma prodrug concentration after intramuscular (IM) dosing of xanomeline prodrugs at 5 mg/kg (Example A-4); assay type: in vivo, male Sprague-Dawley (SD) rats; conditions: male, Sprague-Dawley, intramuscular, 5 mg/kg, 96.0 h, IM 5 mg/kg of xanomeline, individual animals, read-out: Prodrug Plasma Concentrations Following Intramuscular Dosing
MEASUREMENT NAME: concentration at 96 h (ng/mL)
Expressed in ng/mL, but write only the number.

Prompt: Looking for the measured concentration at 96 h of CCCCCCOc1nsnc1C1=CCC[N+](C)(C(C)OC(=O)C(C)(C)C)C1 (stereo not shown) [Compound 19] , can you help?
Completion: 0.764

###

assay: Rat PK: plasma prodrug concentration after intramuscular (IM) dosing of xanomeline prodrugs at 5 mg/kg (Example A-4); assay type: in vivo, male Sprague-Dawley (SD) rats; conditions: male, Sprague-Dawley, im, 5 mg/kg, analyte prodrug, IM 5 mg/kg of xanomeline, individual animals, read-out: Prodrug AUCINF_obs
MEASUREMENT NAME: AUC(0-inf) (ng·h/mL)
Return type: number; implicit unit ng·h/mL.

Prompt: # AUC(0-inf) lookup, item CCCCCCOc1nsnc1C1=CCC[N+](C)(C(C)OC(=O)C(C)(C)C)C1 (stereo not shown)
Completion: 891

###

test: Rat PK: plasma prodrug concentration after intramuscular (IM) dosing of xanomeline prodrugs at 5 mg/kg (Example A-4); format: in vivo, male Sprague-Dawley (SD) rats; conditions: male, Sprague-Dawley, intramuscular, 5 mg/kg, 48.0 h, IM 5 mg/kg of xanomeline, Mean, read-out: Prodrug Plasma Concentrations Following Intramuscular Dosing
MEASUREMENT NAME: concentration at 48 h (ng/mL)
Answer format: numeric, ng/mL implied, no suffix.

Prompt: Param item = CCCCCCOc1nsnc1C1=CCC[N+](C)(C(C)OC(=O)C(C)(C)C)C1 (stereo not shown) ; retrieve measured concentration at 48 h.
Completion: 0.666
